- Target: T1, alpha-amylase (Homo sapiens, UniProt P0DUB6 P0DUB6:16-511)
- T1 sequence: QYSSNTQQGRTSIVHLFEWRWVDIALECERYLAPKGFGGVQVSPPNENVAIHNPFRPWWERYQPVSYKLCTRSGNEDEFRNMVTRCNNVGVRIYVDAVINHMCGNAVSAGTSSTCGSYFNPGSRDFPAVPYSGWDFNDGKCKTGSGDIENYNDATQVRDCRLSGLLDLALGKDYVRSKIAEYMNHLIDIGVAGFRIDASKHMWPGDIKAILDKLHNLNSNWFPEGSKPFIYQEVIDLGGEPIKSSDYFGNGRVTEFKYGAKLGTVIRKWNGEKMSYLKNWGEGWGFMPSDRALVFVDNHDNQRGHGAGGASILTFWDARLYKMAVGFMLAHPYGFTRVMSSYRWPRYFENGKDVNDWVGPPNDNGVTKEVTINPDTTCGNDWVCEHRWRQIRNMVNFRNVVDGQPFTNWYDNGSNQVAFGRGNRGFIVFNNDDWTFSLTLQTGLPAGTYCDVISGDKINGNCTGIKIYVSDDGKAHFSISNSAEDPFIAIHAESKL
- Protocol summary: SPR; SPR buffer with 1 mM MgCl2, pH 7.4; Chi2 5.18
- Condition description: tags: none stated; commercial human alpha-amylase, Lee Biosolutions; label: 3' poly(dA)20 captured on biotin-poly(dT)20
Property measured: Kd (nM)

[[record]]
binder = "AML1243KR8m1s65_FW_s15 (ssDNA, KS9 modified T (formula 1) at underlined T, i.e. T 3' of the 5' primer region) DNA: TAACGCCGCCTATTGTGAACGACGTGAATAGTGTTTGTGGGTCCGGAGTTGCACCCGAAAAAAAAAAAAAAAAAAAA"
property_measured = "Kd"
unit_abbrev = "nM"
reported_value = 0.447

